experiment: Single dose pharmacokinetics study, intravenous route; details: male, CD-1 (ICR), mouse, in vivo, 5 mg/kg
quantity_kind: AUC(0-inf) (µM·h)
Hi! Could you send only the number? It should be in µM·h, unit omitted.

// query I have this molecule here, `C[C@H]1COc2c(N3CC[C@@H](Nc4ncccn4)C3)c(F)cc3c(=O)c(C(=O)O)cn1c23` , and I need its recorded AUC(0-inf).
// result 15.7

====

tested on: VRE12204; test: MIC, microdilution broth method; format: cell-based, Enterococcus faecium; conditions: VRE12204; in µg/mL
quantity_kind: MIC
Simply state the number, no unit and no words.

- compound: "O=C(O)c1cn(C2CC2)c2cc(N3CCN(Cc4ccc(-c5ccccc5)cc4)CC3)c(F)cc2c1=O [ML-77-133]"
  measured_on: "VRE12204"
  MIC: 2
- compound: "CCn1cc(C(=O)O)c(=O)c2cc(F)c(N3CCN(Cc4cccc5ccccc45)CC3)cc21 [ML-77-021]"
  measured_on: "VRE12204"
  MIC: 2
- compound: "CCn1cc(C(=O)O)c(=O)c2cc(F)c(N3CCN(Cc4ccc(COC)cc4)CC3)cc21 [ML-83-052]"
  measured_on: "VRE12204"
  MIC: 16
- compound: "COCc1ccc(CN2CCN(c3cc4c(cc3F)c(=O)c(C(=O)O)cn4C3CC3)CC2)cc1 [ML-83-050]"
  measured_on: "VRE12204"
  MIC: 16

// query What reported MIC corresponds to Cc1cc(C)cc(CN2CCN(c3cc4c(cc3F)c(=O)c(C(=O)O)cn4C3CC3)CC2)c1 [ML-77-149] on VRE12204?
// result 8

// query How about this compound: CCn1cc(C(=O)O)c(=O)c2cc(F)c(N3CCNCC3)cc21 [Norfloxacin, norfloxacin, reference compound]
// result 4

// query What do you get for CCn1cc(C(=O)O)c(=O)c2cc(F)c(N3CCN(Cc4ccccc4)CC3)cc21 [ML-77-047] ?
// result 4

====

system: VRE12201; test: MIC, microdilution broth method; type: cell-based, Enterococcus faecalis; conditions: ESKAPE panel, Gram-positive; in µg/mL
The following molecules are shown together with reported MIC, VRE12201 values.
Please state the value as a number alone, without comment.

// query State the recorded MIC, VRE12201 for this entry: `Cc1cc(C)nc(N[C@@H]2CCN(c3c(F)cc4c(=O)c(C(=O)O)cn5c4c3OC[C@@H]5C)C2)n1`
// result 0.0313

// query What about C[C@H]1COc2c(N3CCC(N4CCOCC4)C3)c(F)cc3c(=O)c(C(=O)O)cn1c23 (some centres unmarked) ?
// result 2

// query Also check `C[C@H]1COc2c(N3CC[C@@H](N(C)C4CC4)C3)c(F)cc3c(=O)c(C(=O)O)cn1c23`
// result 2

// query Again, but for C[C@H]1COc2c(N3CCC(N4CCN(C)CC4)C3)c(F)cc3c(=O)c(C(=O)O)cn1c23 (some centres unmarked)
// result 2

// query Same for `C[C@H]1COc2c(N3CC[C@H](Nc4cc(NC5CC5)ncn4)C3)c(F)cc3c(=O)c(C(=O)O)cn1c23`
// result 1

====

system: VRE12204; experiment: MIC, microdilution broth method; type: cell-based, Enterococcus faecium; settings: VRE12204; in µg/mL
quantity_kind: MIC
I'd appreciate a reply containing only the number, no unit.

Use the examples below as a reference point.
- molecule: "Cc1cc(N2CCN(c3c(F)cc4c(=O)c(C(=O)O)cn5c4c3OC[C@@H]5C)CC2)nc(C(C)C)n1"
  endpoint_result: 8
- molecule: "COC(=O)c1cnc(N2CCN(c3c(F)cc4c(=O)c(C(=O)O)cn5c4c3OC[C@@H]5C)CC2)nc1"
  endpoint_result: 4
- molecule: "CCn1cc(C(=O)O)c(=O)c2cc(F)c(N3CCN(Cc4ccc(-n5cncn5)cc4)CC3)cc21"
  endpoint_result: 16
- molecule: "CCn1cc(C(=O)O)c(=O)c2cc(F)c(N3CCN(c4cccc5ccccc45)CC3)cc21"
  endpoint_result: 1
- molecule: "O=C(O)c1cn(C2CC2)c2cc(N3CCN(CCc4cccc5ccccc45)CC3)c(F)cc2c1=O"
  endpoint_result: 4

// query Reported MIC, molecule C[C@H]1COc2c(N3CCC(Nc4ncccn4)C3)c(F)cc3c(=O)c(C(=O)O)cn1c23 (stereo partly drawn) : ____
// result 4

// query What do we get for `O=C(O)c1cn(C2CC2)c2cc(N3CCN(Cc4ccc(I)cc4)CC3)c(F)cc2c1=O` ?
// result 4

====

tested on: EC12923; experiment: MIC, microdilution broth method; type: cell-based; settings: EC12923; in µg/mL
quantity_kind: MIC
Please reply with the number alone, leaving off any unit.

Some compounds with recorded MIC:
- compound: "COCc1cccc(CN2CCN(c3cc4c(cc3F)c(=O)c(C(=O)O)cn4C3CC3)CC2)c1"
  measured_on: "EC12923"
  MIC: 4
- compound: "CCn1cc(C(=O)O)c(=O)c2cc(F)c(N3CCN(Cc4ccc(COC)cc4)CC3)cc21"
  measured_on: "EC12923"
  MIC: 4
- compound: "CCn1cc(C(=O)O)c(=O)c2cc(F)c(N3CCN(Cc4cccc(COC)c4)CC3)cc21"
  measured_on: "EC12923"
  MIC: 16

// query Fill blank: measured MIC of the compound `C[C@H]1COc2c(N3CCN(c4ccncc4)CC3)c(F)cc3c(=O)c(C(=O)O)cn1c23` is ____.
// result 32

// query What do we get for `COCc1ccc(CN2CCN(c3cc4c(cc3F)c(=O)c(C(=O)O)cn4C3CC3)CC2)cc1` ?
// result 1

====

Measured MIC accompanies every entry in the list below.
tested on: PA01; experiment: MIC, microdilution broth method; format: cell-based, Pseudomonas aeruginosa; conditions: PA01; +PMBN; in µg/mL

- chemical_string: "O=C(O)c1cn(C2CC2)c2cc(N3CCN(Cc4cccc5ccccc45)CC3)c(F)cc2c1=O"
  measured_on: "PA01"
  MIC: "<0.12-0.25"
- chemical_string: "C[C@H]1COc2c(N3CCN(c4ccncn4)CC3)c(F)cc3c(=O)c(C(=O)O)cn1c23"
  measured_on: "PA01"
  MIC: 1
- chemical_string: "O=C(O)c1cn(C2CC2)c2cc(N3CCN(Cc4ccc(S(=O)(=O)NCCc5c[nH]c6ccccc56)cc4)CC3)c(F)cc2c1=O"
  measured_on: "PA01"
  MIC: "≤0.12"

Now look at this entry.
// query Test system PA01; read-out MIC; what value for `CCn1cc(C(=O)O)c(=O)c2cc(F)c(N3CCN(Cc4cccc5ccccc45)CC3)cc21` ?
// result 0.06-0.25

====

# MIC, EC12923 per entry
test system: EC12923; test: MIC, microdilution broth method; assay type: cell-based; conditions: ESKAPE panel, Gram-negative; in µg/mL

- compound: "Cc1cc(N2CCN(c3c(F)cc4c(=O)c(C(=O)O)cn5c4c3OC[C@@H]5C)CC2)nc(C(C)C)n1"
  endpoint_result: "1-8"
- compound: "C[C@H]1COc2c(N3CCC(N4CCOCC4)C3)c(F)cc3c(=O)c(C(=O)O)cn1c23 (stereo partly shown)"
  endpoint_result: 2
- compound: "Cc1cc(C)nc(N[C@@H]2CCN(c3c(F)cc4c(=O)c(C(=O)O)cn5c4c3OC[C@@H]5C)C2)n1"
  endpoint_result: 1

// query Please state recorded MIC, EC12923 (tested on EC12923) of `C[C@H]1COc2c(N3CC[C@@H](Nc4cnccn4)C3)c(F)cc3c(=O)c(C(=O)O)cn1c23`
// result 0.25-0.5

// query Now try `C[C@H]1COc2c(N3CC[C@H](Nc4ncc(N)cn4)C3)c(F)cc3c(=O)c(C(=O)O)cn1c23` .
// result 1

// query Would you mind doing `C[C@H]1COc2c(N3CC[C@H](Nc4ncccn4)C3)c(F)cc3c(=O)c(C(=O)O)cn1c23` as well?
// result 4

// query What do you get for `C[C@H]1COc2c(N3CC[C@H](Nc4cc(NC5CC5)ncn4)C3)c(F)cc3c(=O)c(C(=O)O)cn1c23` ?
// result 0.5

// query Then C[C@H]1COc2c(N3CCC(N4CCN(C)CC4)C3)c(F)cc3c(=O)c(C(=O)O)cn1c23 (stereo partly shown) ?
// result 2

// query Thanks! And `C[C@H]1COc2c(N3CC[C@@H](Nc4ncc(F)cn4)C3)c(F)cc3c(=O)c(C(=O)O)cn1c23` ?
// result 0.125

// query Again, but for C[C@H]1COc2c(N3CCC(Nc4ncccn4)C3)c(F)cc3c(=O)c(C(=O)O)cn1c23 (stereo partly shown)
// result 1
